test system: ACHN; experiment: NCI tumour cell line growth inhibition, 48 h
Calls of active or inactive are those of the source. No stated cut-off is given here; in the data, active = GI50 up to about 1.1 µM and inactive = higher.
Measured GI50 values are reported for all entries that follow.

Guide cases for GI50, answers given:
[[record]]
compound = "COC(=O)C1=C(O)C(C(=O)OC)[C@]2(O)[C@H](C(=O)OC)[C@H]1C[C@@H](c1ccc(O)cc1)[C@H]2C(=O)OC (stereo not given in full)"
measured_property = "GI50"
observed_result = "36.4 µM (inactive)"

[[record]]
compound = "O=C1C/C(=N/c2ccc(Cl)cc2)C(c2ccccc2)N1c1ccccc1 (stereo not given)"
measured_property = "GI50"
observed_result = "6.43 µM (inactive)"

[[record]]
compound = "COc1cc2c3c(c1OC)C(=O)C(=O)C1=C3N(CCC1)CC2"
measured_property = "GI50"
observed_result = "42.1 µM (inactive)"

[[record]]
compound = "CN(C)CCONC(=O)C12CC3CC(CC(C3)C1)C2"
measured_property = "GI50"
observed_result = "> 100 µM (inactive)"

[[record]]
compound = "Cc1nc2c(s/c(=N\\N)n2-c2ccccc2)c(=O)n1C"
measured_property = "GI50"
observed_result = "> 100 µM (inactive)"

[[record]]
compound = "C=CC(C)(C)C(=C)C(=O)N(C)c1ccccc1I"
measured_property = "GI50"
observed_result = "> 100 µM (inactive)"


Supply recorded GI50 for COc1ccc(C/C=C(\C)CCO)cc1 here.
> 100 µM (inactive)

Give recorded GI50. COC(=O)CCC(C)[C@H]1CCC2C3C(C[C@H](OC(C)=O)[C@@]21C)[C@@]1(C)CCC2(C[C@H]1C[C@H]3OC(C)=O)OOC1(CCCCC1)OO2 (stereo not given in full)
11.2 µM (inactive)

Input O=C(CNc1ccccc1C(=O)O)Nn1cnc2ccc(S(=O)(=O)Nc3ccccc3C(=O)O)cc2c1=O , output reported GI50.
> 100 µM (inactive)

Answer with the recorded GI50 of C(=N\C12CC3CC(CC(C3)C1)C2)/C1CCCCC1 only.
> 100 µM (inactive)

Return value of GI50 for input CN(C)CCSc1cccc(-c2cc(-c3cccc(SCCN(C)C)c3)nc(SCCN(C)C)n2)c1 , no commentary.
5.77 µM (inactive)

Look up GI50 of CC1CN(c2ccc(Cl)cc2)CC(C)OC(=O)O1 (stereo not given) and report it.
> 100 µM (inactive)

Give me measured GI50, please, for this compound: CN(C)Cc1cc(C(C)(C)C)cc(CN(C)C)c1O
65.3 µM (inactive)

Given the compound O=C(COc1ccc(OCC(=O)N2C(=O)CS/C2=N\c2ccccc2)cc1)N1C(=O)CS/C1=N\c1ccccc1 , write its reported GI50.
12.5 µM (inactive)

Give GI50 for O/N=C1\C=Cc2nn(-c3ccccc3)nc2\C1=N/O
2.3 µM (inactive)

Specify reported GI50 for the compound shown: Cc1cc(N(CCC#N)CCC#N)ccc1/N=N/c1ccc(S(N)(=O)=O)cc1
> 100 µM (inactive)

Please look at this compound and report its GI50: COc1ccc(C2=CN3CCC[C@H]3C=C2c2cc(O)c(OC)c(OC)c2)cc1OC
0.00302 µM (active)

Tell me its GI50 given S=C1Cc2c(-c3ccc(Cl)cc3)cc(-c3ccccc3)nc2-c2ccccc2N1 as the entry.
7.82 µM (inactive)

Give the reported value of GI50 for this record: C=C(CO)[C@H]1Oc2ccc(C(C)=O)cc2[C@@H]1O
> 100 µM (inactive)

Give a short answer stating reported GI50 for CN(C)C=[N+]=[N-] .
> 100 µM (inactive)

Entry Cc1cccc2oc3c(c(=O)c12)CC(O)C(C)(C)O3 (stereo not given) needs its GI50 filled in; supply it.
> 100 µM (inactive)

Quickly give me recorded GI50 for CN(C)CCCN1C(=S)N(CCCN(C)C)c2c3ccccc3nc3c([N+](=O)[O-])ccc1c23
4.06 µM (inactive)

Look up and state reported GI50 for CC(=O)[C@H]1CC[C@H]2[C@@H]3CCC4=CC(=O)CC[C@]4(C)[C@H]3CC[C@]12C
26 µM (inactive)

Please look at this compound and report its GI50: Cc1ccc(NC(=O)COC(=O)c2cccc3c(=O)c4ccccc4[nH]c23)cc1
27 µM (inactive)

Write down GI50 measured for item Cc1ccc2c(O)cc(-c3ccsc3)nc2n1
6.98 µM (inactive)

Quick one: give measured GI50 for O=C(Cl)c1cc([N+](=O)[O-])cc([N+](=O)[O-])c1
> 100 µM (inactive)

Fill in reported GI50 for this entry: CO[C@H]1[C@H](O)[C@H](O[C@H]2CC[C@@]3(C)[C@H](CC[C@@H]4[C@@H]3CC[C@]3(C)[C@@H](C5=CC(=O)OC5)CC[C@]43O)C2)O[C@@H](C)[C@@H]1O
0.000224 µM (active)

Answer with the recorded GI50 of O=C(C/N=C(\CN(c1ccccc1)c1ccccc1)Oc1c(Cl)cc(Cl)cc1Cl)N1c2ccccc2Sc2ccccc21 only.
39.9 µM (inactive)

Tell me its GI50 given Cc1c(C#N)c(N)n(C2OCC(O)C(O)C2O)c(=S)c1C#N (stereo not given) as the entry.
> 100 µM (inactive)

Consider the compound CC(=O)Oc1cc2c(c3ncccc13)OC(C)(C)C2 and give its recorded GI50.
11.1 µM (inactive)

Indicate the recorded GI50 value for this compound: CCCCCC(C[N+]1(C)CCOCC1)C(=O)/C=C/c1ccccc1 (stereo not given)
23.6 µM (inactive)
